molecular target: OGA (Homo sapiens, UniProt O60502); construct: HEK293 cells inducible for P301L mutant human Tau (isoform 2N4R) were established at Janssen; endogenous in cells; host or cells: HEK293 cells inducible for P301L mutant human Tau (2N4R); test: OGA cellular assay (ICC detection of O-GlcNAcylated proteins in HEK293 cells inducible for P301L mutant human Tau); assay type: cell-based; settings: HEK293 cells inducible for P301L mutant human Tau, maximum = Thiamet G 200 uM
Sequence (O60502 whole entry, canonical isoform): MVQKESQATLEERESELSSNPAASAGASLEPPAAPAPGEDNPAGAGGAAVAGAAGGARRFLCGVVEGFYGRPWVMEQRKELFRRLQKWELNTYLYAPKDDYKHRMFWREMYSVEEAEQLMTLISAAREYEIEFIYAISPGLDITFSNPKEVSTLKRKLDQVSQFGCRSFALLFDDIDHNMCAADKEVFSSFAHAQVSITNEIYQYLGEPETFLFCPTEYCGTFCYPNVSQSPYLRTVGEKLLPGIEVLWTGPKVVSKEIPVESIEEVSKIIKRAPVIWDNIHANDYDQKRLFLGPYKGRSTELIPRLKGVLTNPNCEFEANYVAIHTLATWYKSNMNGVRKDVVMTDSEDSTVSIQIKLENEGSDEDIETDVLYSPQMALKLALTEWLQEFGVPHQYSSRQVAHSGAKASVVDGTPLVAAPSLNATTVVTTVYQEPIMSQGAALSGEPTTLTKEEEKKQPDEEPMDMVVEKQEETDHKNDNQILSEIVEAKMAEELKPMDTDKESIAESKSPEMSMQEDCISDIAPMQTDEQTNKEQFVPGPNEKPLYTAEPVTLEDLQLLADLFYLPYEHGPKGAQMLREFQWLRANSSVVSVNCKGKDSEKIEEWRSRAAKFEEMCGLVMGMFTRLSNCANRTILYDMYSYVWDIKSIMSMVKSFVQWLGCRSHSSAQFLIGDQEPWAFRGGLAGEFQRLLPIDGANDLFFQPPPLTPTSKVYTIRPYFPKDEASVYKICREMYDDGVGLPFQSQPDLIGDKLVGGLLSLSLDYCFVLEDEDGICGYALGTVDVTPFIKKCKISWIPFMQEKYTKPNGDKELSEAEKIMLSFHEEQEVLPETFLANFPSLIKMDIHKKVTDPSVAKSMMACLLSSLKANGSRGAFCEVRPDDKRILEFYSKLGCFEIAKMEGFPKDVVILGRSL
Entries and their measured Cellular Emax (%) follow.
Write the numeric value and append its unit.

Cc1cc(C2CCCN(C(C)c3ccc4sc(C)nc4n3)C2)c(F)c(C)n1 (single isomer, unassigned) [Compound 78]    80%
Cc1cc(C2CCCN(C(C)c3cc4nc(C)sc4cc3F)C2)cc(C)n1 (stereo not drawn)    84%
Cc1cc(CO[C@H]2CCCN(C(C)c3cc4nc(C)sc4cc3F)C2)cc(C)n1 (single isomer, unassigned) [Compound 100]    −6%
Cc1cc(O[C@@H]2CCN(C(C)c3ccc4sc(C)nc4n3)C2)cc(C)n1 (single isomer, unassigned) [Compound 73]    −9%
Cc1cc(C2CCCN(C(C)c3ccc4sc(C)nc4n3)C2)c(F)c(C)n1 (single isomer, unassigned) [Compound 77]    −10%

Query block: Any idea what Cellular Emax (%) came out for Cc1cc(C[C@@H]2CCN(C(C)c3nc4nc(C)sc4cc3F)C2)cc(C)n1 (single isomer, unassigned) [Compound 94] on OGA (Homo sapiens, UniProt O60502)?
Result block: 2%

Query block: Any idea what Cellular Emax (%) came out for Cc1cc(C[C@@H]2CCN(C(C)c3nc4nc(C)sc4cc3F)C2)cc(C)n1 (single isomer, unassigned) [Compound 93] on OGA (Homo sapiens, UniProt O60502)?
Result block: 91%

Query block: Any idea what Cellular Emax (%) came out for Cc1cc(CO[C@H]2CCCN(C(C)c3cc4nc(C)sc4cc3F)C2)cc(C)n1 (single isomer, unassigned) [Compound 101] on OGA (Homo sapiens, UniProt O60502)?
Result block: 73%

Query block: Any idea what Cellular Emax (%) came out for Cc1cc(O[C@@H]2CCN(C(C)c3ccc4sc(C)nc4n3)C2)cc(C)n1 (single isomer, unassigned) [Compound 74] on OGA (Homo sapiens, UniProt O60502)?
Result block: −4%

Reference source: patent US20210115040A1
